STUDY SYSTEM: UniProtKB Q13324
Sequence (Q13324 1-411): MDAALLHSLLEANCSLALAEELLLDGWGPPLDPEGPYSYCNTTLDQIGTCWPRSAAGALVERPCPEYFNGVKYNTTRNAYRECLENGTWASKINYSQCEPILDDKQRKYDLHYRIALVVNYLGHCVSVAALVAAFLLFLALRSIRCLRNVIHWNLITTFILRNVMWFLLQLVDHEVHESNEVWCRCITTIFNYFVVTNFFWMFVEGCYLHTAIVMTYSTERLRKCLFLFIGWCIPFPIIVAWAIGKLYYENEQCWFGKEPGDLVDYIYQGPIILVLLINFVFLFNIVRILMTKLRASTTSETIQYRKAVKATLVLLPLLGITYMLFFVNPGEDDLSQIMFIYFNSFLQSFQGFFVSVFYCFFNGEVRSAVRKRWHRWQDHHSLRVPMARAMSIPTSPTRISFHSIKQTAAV
MEASUREMENT NOTES: CRF-2 receptor antagonism, HTRF cAMP assay in CHO cells
MEASUREMENT CONTEXT: Biological data Table 2; inhibition of CRF induced cAMP response in CHO cells, EC50 concentration of CRF
Please go through the items and note down their IC50.
Just the number please, in µM, no unit attached.

Query: Could you tell me which IC50 is on file for Cc1ncc(Cl)cc1C(=O)N[C@H]1CC[C@H](CN2C(=O)[C@@](C)(F)c3ccccc32)CC1 ?
Result: 4.59

Query: Then this compound: Cc1ncc(Cl)cc1C(=O)N[C@H]1CC[C@H](Cn2c(=O)n(CC(C)C)c3ccccc32)CC1
Result: 0.296

Query: Then this compound: Cc1ncc(Cl)cc1C(=O)N[C@H]1CC[C@H](CN2C(=O)C(C)(C)c3ccccc32)CC1
Result: 3.8

Query: Then this compound: Cc1cccc2c1C(C)(C)C(=O)N2C[C@H]1CC[C@H](NC(=O)c2cc(Cl)cnc2C)CC1
Result: 4.81

Query: Then this compound: Cc1ncc(Cl)cc1C(=O)N[C@H]1CC[C@H](CN2C(=O)C(C)(C)c3ccc(Cl)cc32)CC1
Result: 4.62

Query: Then this compound: Cc1ncc(Cl)cc1C(=O)N[C@H]1CC[C@H](Cn2c(=O)n(C)c3ccccc32)CC1
Result: 3.56

Query: Then this compound: O=C(N[C@H]1CC[C@H](CN2C(=O)Cc3ccc(F)cc32)CC1)c1cc(C(F)(F)F)ccc1Cl
Result: 3.87

Query: Then this compound: COc1ccc2c(c1)N(C[C@H]1CC[C@H](NC(=O)c3cc(Cl)cnc3C)CC1)C(=O)C2(C)C
Result: 3.05

Query: Then this compound: CCn1c(=O)n(C[C@H]2CC[C@H](NC(=O)c3cc(Cl)cnc3C)CC2)c2ccccc21
Result: 0.256

Query: Then this compound: Cc1cc2c(cc1C)C(C)(F)C(=O)N2C[C@H]1CC[C@H](NC(=O)c2cc(Cl)cnc2C)CC1 (single isomer, unassigned; enantiomer 1) [Example 2.54]
Result: 4.76

Query: Then this compound: Cc1ncc(Cl)cc1C(=O)N[C@H]1CC[C@H](CN2C(=O)C(C)(F)c3ccc(Cl)cc32)CC1 (single isomer, unassigned)
Result: 0.876

* * *

STUDY SYSTEM: CRF-1 (UniProt P34998)
MEASUREMENT NOTES: CRF-1 receptor antagonism, HTRF cAMP assay in CHO cells
Assay type: cell-based, human
MEASUREMENT CONTEXT: Biological data Table 2; inhibition of CRF induced cAMP response in CHO cells, EC50 concentration of CRF
Please go through the items and note down their IC50.

Query: Could you tell me which IC50 is on file for Cc1ncc(Cl)cc1C(=O)N[C@H]1CC[C@H](CN2C(=O)C(C)(C)c3ccccc32)CC1 ?
Result: 48 nM

Query: Then this molecule: Cc1cc2c(cc1C)C(C)(F)C(=O)N2C[C@H]1CC[C@H](NC(=O)c2cc(Cl)cnc2C)CC1 (single isomer, unassigned; enantiomer 1) [Example 2.54]
Result: 59 nM

Query: Then this molecule: O=C(N[C@H]1CC[C@H](CN2C(=O)Cc3ccc(F)cc32)CC1)c1cc(C(F)(F)F)ccc1Cl
Result: 47 nM

Query: Then this molecule: Cc1cc2c(cc1C)C(C)(F)C(=O)N2C[C@H]1CC[C@H](NC(=O)c2cc(Cl)cnc2C)CC1 (single isomer, unassigned; enantiomer 2) [Example 2.55]
Result: 60 nM

Query: Then this molecule: Cc1ncc(Cl)cc1C(=O)N[C@H]1CC[C@H](CN2C(=O)C(C)(C)c3cccc(Cl)c32)CC1
Result: 17 nM

Query: Then this molecule: Cc1ncc(Cl)cc1C(=O)N[C@H]1CC[C@H](CN2C(=O)C3(CC3)c3cc(F)ccc32)CC1
Result: 12 nM

Query: Then this molecule: Cc1ncc(Cl)cc1C(=O)N[C@H]1CC[C@H](CN2C(=O)C(F)(F)c3ccc(Cl)cc32)CC1
Result: 157 nM

Query: Then this molecule: Cc1ncc(Cl)cc1C(=O)N[C@H]1CC[C@H](Cn2c(=O)n(C)c3ccccc32)CC1
Result: 86 nM

Query: Then this molecule: CCn1c(=O)n(C[C@H]2CC[C@H](NC(=O)c3cc(Cl)cnc3C)CC2)c2ccccc21
Result: 44 nM

Query: Then this molecule: COc1cccc2c1N(C[C@H]1CC[C@H](NC(=O)c3cc(C(F)(F)F)ccc3Cl)CC1)C(=O)C2(C)C
Result: 50 nM

Query: Then this molecule: Cc1ncc(Cl)cc1C(=O)N[C@H]1CC[C@H](Cn2c(=O)n(CC(C)C)c3ccccc32)CC1
Result: 18 nM
